Below, each entry is listed with its recorded inhibition at 10 µM.
# study target: hERG potassium channel (Homo sapiens (Human))
# assay explanation: in vitro
// note: answer is a bare numeric in %

// worked examples, inhibition at 10 µM included
[
  {
    "molecule": "CN1C(=O)N(c2cccc(C(F)(F)F)c2)C2=C(C(=O)CC2)C1c1ccc(C#N)cc1CO (single isomer, unassigned) [Example A.1A]",
    "inhibition at 10 µM [%]": 7
  },
  {
    "molecule": "CN1C(=O)N(c2ccnc(C(F)(F)F)c2)C2=C(C(=O)CC2)C1c1ccc(C#N)cc1S(C)(=O)=O (single isomer, unassigned) [Example D.1A]",
    "inhibition at 10 µM [%]": 8
  },
  {
    "molecule": "CN1C(=O)N(c2cccc(C(F)(F)F)c2)C2=C(C(=O)CC2)[C@H]1c1ccc(C#N)cc1S(=O)(=O)CCO [Example B.1.2B]",
    "inhibition at 10 µM [%]": 12
  }
]

For record CN1C(=O)N(c2cccc(C(F)(F)F)c2)C2=C(C(=O)CC2)[C@H]1c1ccc(C#N)cc1[S+](C)[O-] (single isomer, unassigned) [Example C.2A] the listed inhibition at 10 µM is 7

The reported measurements were obtained from patent US9475779B2.
